target: mouse CD38 (Mus musculus); test: mouse recombinant CD38 enzyme assay (hydrolysis of NAD+); settings: read-out: mCD38 BioChem IC50
Answer each item with its documented IC50.

Task: Any idea what its IC50 is? The molecule is O=C(N[C@H]1C[C@H](c2cccc(F)c2)C1)c1nccc(-n2ccnc2)n1
Result: 29.5 nM

Task: Fill in: IC50 of CCO[C@H]1CC[C@H](NC(=O)c2nccc(-c3cncn3C)n2)CC1 is ___
Result: 28.7 nM

Task: So what's the measured IC50 for this one? CO[C@H]1CC[C@H](NC(=O)c2cc(C(F)(F)F)nc(-n3ccnc3)n2)CC1
Result: 38 nM

Task: What does the data say about its IC50? Entry: CO[C@H]1CC[C@H](NC(=O)c2cc(C(C)C)nc(-c3cncn3C)n2)CC1
Result: 3 nM

----------
Molecular target: mouse CD38 (Mus musculus)
Sequence (P56528 1-304): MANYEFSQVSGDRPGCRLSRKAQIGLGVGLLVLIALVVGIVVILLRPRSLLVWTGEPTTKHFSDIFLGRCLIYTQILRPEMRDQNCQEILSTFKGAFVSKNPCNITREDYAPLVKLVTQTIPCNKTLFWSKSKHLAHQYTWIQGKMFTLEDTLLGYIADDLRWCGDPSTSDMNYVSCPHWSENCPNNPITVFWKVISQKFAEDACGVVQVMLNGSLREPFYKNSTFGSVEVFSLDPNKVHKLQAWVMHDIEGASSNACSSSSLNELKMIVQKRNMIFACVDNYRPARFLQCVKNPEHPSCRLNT
Test: mouse recombinant CD38 enzyme assay (hydrolysis of NAD+)
Details: read-out: mCD38 BioChem IC50
Measurement Name: IC50 (nM)
Write it as a number; the unit nM goes unstated.

Task: Quick one: IC50 for COC(=O)[C@H]1CC[C@H](NC(=O)c2ccnc(-c3cncn3C)n2)CC1 ?
Result: 2

Task: For the molecule shown here, Cn1cncc1-c1nc(C(=O)N[C@H]2CC[C@H](C(F)F)CC2)cc(C(C)(C)O)n1 , give the reported IC50.
Result: 9

Task: Quick one: IC50 of Cn1cncc1-c1ccnc(C(=O)N[C@H]2CC[C@H](OC(F)(F)F)CC2)n1 ?
Result: 41.7

Task: Which measured IC50 value corresponds to CO[C@H]1C[C@H](NC(=O)c2nccc(-n3ccnc3)n2)C1 ?
Result: 198

Task: Param item = CO[C@H]1CC[C@H](NC(=O)c2cc(C(F)(F)F)cc(-n3ccnc3)n2)CC1 ; retrieve measured IC50.
Result: 12

Task: // query IC50 value for entry COc1ccc([C@H]2C[C@H](NC(=O)c3nccc(-c4cncn4C)n3)C2)cc1
Result: 11.6

Task: Given CO[C@H]1CC[C@H](NC(=O)c2nc(-c3cncn3C)cnc2C)CC1 , state its recorded IC50.
Result: 166

Task: Give the measured IC50 of Cn1cncc1-c1ccnc(C(=O)Nc2ccc(C(C)(C)O)cc2)n1 .
Result: 5.8

Task: Can you share its IC50? I mean this molecule: Cn1cncc1-c1nc(C(=O)Nc2ccc(C(F)F)nc2)cc(C2CC3(COC3)C2)n1
Result: 1

Task: Recorded IC50 of CC(C)(O)[C@H]1CC[C@H](NC(=O)c2cccc(-n3ccnc3)n2)CC1 , please.
Result: 5

Task: Entry CC(C)(O)c1ccc(NC(=O)c2nccc(-n3ccnc3)n2)cc1 has what IC50?
Result: 10.2

Task: # IC50 lookup, item CO[C@H]1CC[C@H](NC(=O)c2cc([C@H]3CC[C@@H](OC)CC3)nc(-c3cncn3C)n2)CC1
Result: 1.8

Task: What value of IC50 has been reported for the following molecule? COCCOc1cc(-c2cncn2C)nc(C(=O)Nc2ccc(C(F)F)nc2)n1
Result: 1.1

Task: For the molecule Cn1cncc1-c1nccc(C(=O)N[C@H]2CC[C@H](C(F)F)CC2)n1 , what IC50 is on record?
Result: 1

Task: Given CC(C)c1cc(C(=O)Nc2ccc(C(F)F)nc2)nc(-c2cncn2C)n1 , state its recorded IC50.
Result: 2

Task: Value lookup for IC50; key = Cc1cc(C(=O)N[C@H]2CC[C@H](C(F)F)CC2)nc(-c2cncn2C)c1
Result: 7

Task: Which IC50 is reported for this molecule? CO[C@H]1CC[C@H](NC(=O)c2ccnc(-c3cncs3)n2)CC1
Result: 166

Task: For CO[C@H]1CC[C@H](NC(=O)c2cc(C3CCOCC3)nc(-n3ccnc3)n2)CC1 , what is its reported IC50?
Result: 39.8

Task: For the molecule O=C(N[C@H]1C[C@H](Oc2ccccc2)C1)c1nccc(-n2ccnc2)n1 , what IC50 is on record?
Result: 99

Task: Need IC50, item Cn1cncc1-c1ccnc(C(=O)N[C@H]2C[C@@H](c3ccnc(C(F)(F)F)c3)C2)n1
Result: 327

Task: Tell me the measured IC50 of O=C(N[C@H]1CC[C@@H](O)CC1)c1cccc(-n2ccnc2)n1 , please.
Result: 205

Task: I am curious: what IC50 value has been reported for CO[C@H]1CC[C@H](NC(=O)c2cc(C)cc(-c3cncs3)n2)CC1 ?
Result: 135

Task: Any idea what IC50 was measured for Cn1cncc1-c1nc(C(=O)N[C@H]2CC[C@H](OC(F)(F)F)CC2)cc(C2CCC(F)(F)CC2)n1 ?
Result: 6.9

Task: What value of IC50 has been reported for the following molecule? O=C(Nc1ccc(C(F)(F)F)nc1)c1cccc(-n2ccnc2)n1
Result: 8

Task: Please look up its IC50: Cn1cncc1-c1nc(C(=O)Nc2ccc(C(F)(F)F)nc2)cc(C2CCC(F)(F)CC2)n1
Result: 1

Task: // lookup IC50 for CO[C@H]1CC[C@H](NC(=O)c2cc(C3(C)COC3)nc(-c3cncn3C)n2)CC1
Result: 3.6
